# Test system: DU-145
# assayText: NCI tumour cell line growth inhibition, 48 h
Calls of active or inactive are those of the source. No stated cut-off is given here; in the data, active = GI50 up to about 1.1 µM and inactive = higher. Square brackets hold non-standard residues; d marks the D form. Peptide text beside a SMILES is read from it. pGlu = O=C1CC[CH](C(=O)O)N1
Collected GI50 values appear next to each entry.

Look over these answered cases.
{"molecule": "CC(NC(=O)C(Cc1c[nH]cn1)NC(=O)C1CCC(=O)N1)C(N)=O (stereo not drawn) ([pGlu]-His-Ala-NH2; configuration not given here)", "GI50": "> 100 µM (inactive)"}
{"molecule": "COc1ccc(CNc2nc3ccccc3nc2-c2cccs2)cc1", "GI50": "> 100 µM (inactive)"}
{"molecule": "CN(C)Cc1cc(C(=O)/C=C/c2cccc(Cl)c2)cc(CN(C)C)c1O", "GI50": "6.3 µM (inactive)"}
{"molecule": "Cc1[nH]c(/C=C2\\C(=O)Nc3ccccc32)c(C)c1CCC(=O)O [ORANTINIB]", "GI50": "31.5 µM (inactive)"}

Now for a further molecule.
Req: Return GI50 for the following molecule: COc1cc(C2c3cc(OC)c(OC)c(O)c3C(=O)C3CCC(=O)N32)cc(OC)c1OC (stereo not given)
Resp: > 100 µM (inactive)

###

# Test system: HL-60
# assayText: NCI tumour cell line growth inhibition, 48 h
Calls of active or inactive are those of the source. Cut-off read from the data, not from the text of the source: active = GI50 up to about 1.1 µM and inactive = higher.
Pick from True for active, False for inactive when you respond.

Field: example entries. Status: answers known.
{"molecule": "C[C@H](CCC(=O)O)[C@H]1CC[C@H]2[C@@H]3[C@H](O)C[C@@H]4C[C@H](O)CC[C@]4(C)[C@H]3CC[C@]12C [CHENODIOL]", "categoryLabel": "False"}
{"molecule": "C=C1C(C(=O)OC)[C@H]1C(=O)OC (stereo not given in full)", "categoryLabel": "False"}
{"molecule": "S=C(S)NCCN1CCNCC1", "categoryLabel": "True"}
{"molecule": "CC(C)=CCc1ccc2[nH]c3c(c2c1)C(=O)C(=O)C(C)=C3C(O)C(C)O (stereo not given)", "categoryLabel": "True"}
{"molecule": "CCCC1=NC(C(F)(F)F)(C(F)(F)F)N=C(N2CCOCC2)O1", "categoryLabel": "False"}

Shifting focus to the molecule that follows.
Req: Recorded test call requested for Cc1ccc(NCC2CC/C(=C\c3ccc(Cl)cc3)C2=O)cc1 (stereo not given)
Resp: False

###

# System: OVCAR-4
# assayText: NCI tumour cell line growth inhibition, 48 h
The source made the active and inactive calls. Cut-off read from the data, not from the text of the source: active = GI50 up to about 1.1 µM and inactive = higher.
Pick from y (active), n (inactive) when you respond.

{"molecule": "COC[C@H](C)/N=C/N1CCc2ccccc2C1(Cc1ccccc1)Cc1ccccc1", "categoryLabel": "n"}
{"molecule": "O=C1c2ccc(O)cc2C(=O)c2ccc(O)cc21", "categoryLabel": "n"}
{"molecule": "CC1=C(C(=O)Nc2ccccc2)C(c2ccc3c(c2)OCO3)C(C(=O)Nc2ccccc2)=C(C)N1", "categoryLabel": "n"}
{"molecule": "COc1ccc(C2=Nc3ccccc3NC(=O)C2)cc1", "categoryLabel": "n"}
{"molecule": "COc1cc(OC2OC(COC(=O)c3cc(O)c(O)c(O)c3)C(O)C(O)C2O)ccc1O (stereo not given)", "categoryLabel": "n"}
{"molecule": "CC(C)[Si](OC12CCC(CC1O)CC2C(=O)O)(C(C)C)C(C)C (stereo not given)", "categoryLabel": "n"}
{"molecule": "CC1(C)OC2C(O)C(CO)OC2(C(F)F)O1 (stereo not given)", "categoryLabel": "n"}
{"molecule": "O=S(=O)(O)c1ccc(-c2c3nc(c(-c4ccc(S(=O)(=O)O)cc4)c4ccc([nH]4)c(-c4ccc(S(=O)(=O)O)cc4)c4nc(c(-c5ccc(S(=O)(=O)O)cc5)c5ccc2[nH]5)C=C4)C=C3)cc1", "categoryLabel": "n"}

Req: Recorded test call requested for Cl.O=C(O)c1cccnc1
Resp: n

Req: Recorded test call requested for COc1ccc(C(C)c2cc3c(cc2OC)OCO3)cc1 (stereo not given)
Resp: n

Req: Recorded test call requested for O=C1CSC(c2c[nH]c3ccccc23)N1c1cccc([N+](=O)[O-])c1 (stereo not given)
Resp: n
